Molecular target: T1, interleukin 18 binding protein (IL-18BP) (UniProt O95998 31-194)
T1 sequence (looked up): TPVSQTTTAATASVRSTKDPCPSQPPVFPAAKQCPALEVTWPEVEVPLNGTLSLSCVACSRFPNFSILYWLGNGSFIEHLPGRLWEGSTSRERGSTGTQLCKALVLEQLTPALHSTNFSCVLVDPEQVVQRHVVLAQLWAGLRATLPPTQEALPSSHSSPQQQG
Assay: cell-based or functional assay
assay-readout: Ratio (-BP/+BP), DF-100,000

[
  {
    "binder": "IL-18 variant D23G, K53Y, S55Y (ligand) YFGKLESKLSVIRNLNDQVLFIGQGNRPLFEDMTDSDMRDNAPRTIFIISMYYDYQPRGMAVTISVKSEKISTLSSENKIISFKEMNPPDNIKDTKSDIIFFQRSVPGHDNKMQFESSSYEGYFLASEKERDLFKLILKKEDELGDRSIMFTVQNED",
    "recorded-measurement": 1.09
  },
  {
    "binder": "IL-18 variant T34N, S36Y, D37E, D40Q, N41Q, K53D, S55D (ligand) YFGKLESKLSVIRNLNDQVLFIDQGNRPLFEDMNDYEMRQQAPRTIFIISMYDDDQPRGMAVTISVKSEKISTLSSENKIISFKEMNPPDNIKDTKSDIIFFQRSVPGHDNKMQFESSSYEGYFLASEKERDLFKLILKKEDELGDRSIMFTVQNED",
    "recorded-measurement": 0.96
  },
  {
    "binder": "IL-18 variant K53G, S55V, R104Y, H109N (ligand) YFGKLESKLSVIRNLNDQVLFIDQGNRPLFEDMTDSDMRDNAPRTIFIISMYGDVQPRGMAVTISVKSEKISTLSSENKIISFKEMNPPDNIKDTKSDIIFFQYSVPGNDNKMQFESSSYEGYFLASEKERDLFKLILKKEDELGDRSIMFTVQNED",
    "recorded-measurement": 0.9
  },
  {
    "binder": "IL-18 variant S36Q, D40T, K53P, S55L (ligand) YFGKLESKLSVIRNLNDQVLFIDQGNRPLFEDMTDQDMRTNAPRTIFIISMYPDLQPRGMAVTISVKSEKISTLSSENKIISFKEMNPPDNIKDTKSDIIFFQRSVPGHDNKMQFESSSYEGYFLASEKERDLFKLILKKEDELGDRSIMFTVQNED",
    "recorded-measurement": 1.44
  }
]
